In this section, each of the compounds is paired with its reported pEC50.
- Tested on: Namalwa: Burkitt lymphoma cell line
- test.description: cell survival (ATP-lite luminescence), Namalwa
- Format: cell-based
- protocol.conditions: 48 hours incubation, read-out: EC50 for various tumor cell lines: Namalwa
- Protocol: Molecules (I-1), (I-2) and (I-3) were identified during a test of antiproliferative activity on a metastatic melanoma cell line, WM266-4. The cells are seeded in 96-well plates in phenol red-free RPMI 1640 medium (Seromed) to which is added 10% fetal calf serum (100 μl/well, 1·10^4 to 3·10^4 cells/ml depending on the line studied). […]
pEC50: −log10 of the molar value.
experimental.readout: pEC50

# compound, target.entity, experimental.readout, reported.result
records = [
    ("CNC(=O)OC1C(OC)COC(OC2C(O)C(COC)OC(OC3CC(OC)CC4C3C(C)=CC3/C=C/C=C/C(C)C(/C=C/c5nc(C(C)CCCC#N)oc5C)OC(=O)CC/C=C(C)\\C=C\\C34C)C2OC)C1O (stereo not drawn) [Molecule (I-3)]", "Namalwa: Burkitt lymphoma cell line", "pEC50", 9.49),
    ("COCC1OC(OC2CC(OC)CC3C2C(C)=CC2/C=C/C=C/C(C)C(/C=C/c4nc(C(C)CCCC#N)oc4C)OC(=O)CC/C=C(C)\\C=C\\C23C)C(OC)C(O)C1O (stereo not drawn) [Molecule (I-1)]", "Namalwa: Burkitt lymphoma cell line", "pEC50", 9.51),
    ("COCC1OC(OC2CC(OC)CC3C2C(C)=CC2/C=C/C=C/C(C)C(/C=C/c4nc(C(C)CCCC#N)oc4C)OC(=O)CC/C=C(C)\\C=C\\C23C)C(OC)C(OC2OCC(OC)C(O)C2O)C1O (stereo not drawn) [Molecule (I-2)]", "Namalwa: Burkitt lymphoma cell line", "pEC50", 9.44),
]

Hey, just so you know, these numbers are from patent US9873715B2.
